ASSAY NOTES: in vivo
Design: species or system CBi/L and CBi+ mice
EXPERIMENTAL CONDITIONS: male, CBi+, mouse, po, 15 mg/kg

- MOLECULE: "COC(=O)Nc1nc2ccc(C(=O)c3ccccc3)cc2[nH]1 [MBZ, Mebendazole]"
  UNIT DESCRIPTOR: "min"
  Tmax: 39.6

====

ASSAY NOTES: in vivo
Parameters: species or system CBi/L and CBi+ mice
EXPERIMENTAL CONDITIONS: male, CBi/L, mouse, po, 15 mg/kg

- MOLECULE: "COC(=O)Nc1nc2ccc(C(=O)c3ccccc3)cc2[nH]1 [MBZ, Mebendazole]"
  Tmax [min]: 39.6
